Listing of entries alongside the reported protein stability index.
B1: DVL3 (parent)
chain: YNPHPGFPELGYSYGGGSASSQHS

- Variants of: B1
- protocol: protein stability index of a GFP-peptide fusion (GPS, HEK-293T) (PSI 1-6); higher = more stable;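 further: lentivirally expressed fusions sorted by FACS into six bins by GFP to DsRed ratio, PSI derived from sequencing read proportions per bin multiplied by bin number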
- run_parameters: c terminus: a fixed tail appended
Lab note: write the figure by itself, no unit.

A19P : 2.74
F7V : 3.01

GET /values?readout=protein stability index&item= A19C 2.19

Further, for S24I ? 2.56

Further, for G11N ? 2.72

Further, for N2H ? 3.33

Further, for G6L ? 2.48

Further, for A19F ? 2.09

Further, for Y14L ? 2.69

Further, for S21I ? 2.56

Further, for P3K ? 3.43
